# test-details: Mouse pharmacokinetic test
# Assay type: in vivo, ICR mice
# recorded-conditions: plasma, po, 30 mg/kg, PO-30mpk
Please provide measured AUC(0-inf) for the entries that follow.
Please provide the amount together with its unit, number first.

Dear colleague, could you send me AUC(0-inf) for each of the items below? Thanks.
1. CC(C)(c1ccc(-c2ccc(COc3ccnc(P(C)(C)=O)n3)cc2)cc1)c1cc(Cl)c(OCCCl)c(C#N)c1
2. CC(C)(c1ccc(-c2ccc(Oc3ccnc(P(C)(C)=O)n3)cc2)cc1)c1cc(Cl)c(OCCCl)c(C#N)c1
3. CC(C)(c1ccc(-c2ccc(OCc3ccnc(N4CC(NS(C)(=O)=O)C4)n3)cc2)cc1)c1cc(Cl)c(OCCCl)c(C#N)c1
4. CC(C)(c1ccc(-c2cnc(OCc3ccnc(N4CC5(CCS5(=O)=O)C4)n3)cn2)cc1)c1cc(Cl)c(OCCCl)c(C#N)c1
5. CC(C)(c1ccc(-c2ccc(/C=C/c3ccnc(P(C)(C)=O)n3)cc2)cc1)c1cc(Cl)c(OCCCl)c(C#N)c1
6. CC(C)(c1ccc(-c2ccc(OCc3ccnc(N4CC(S(N)(=O)=O)C4)n3)cn2)cc1)c1cc(Cl)c(OCCCl)c(C#N)c1
7. CC(C)(c1ccc(-c2ccc(OC3CCN(c4ccnc(P(C)(C)=O)n4)CC3)cc2)cc1)c1cc(Cl)c(OCCCl)c(C#N)c1

// result
1: 298 µg·h/mL; 2: 368 µg·h/mL; 3: 376 µg·h/mL; 4: 2300 µg·h/mL; 5: 242 µg·h/mL; 6: 309 µg·h/mL; 7: 358 µg·h/mL

---

Please provide measured half-life for the entries that follow.
# test-details: Mouse pharmacokinetic test
# Assay type: in vivo, ICR mice
# recorded-conditions: plasma, 30 mg/kg, PO-30mpk
# Experimental: Formulation preparation: The dosing solutions were prepared on the day of administration. Six healthy male naive ICR mice weighing 25-30 g were selected and divided into two groups (intravenous and oral groups), with three mice in each group, and administered a single dose. […] Feeding was resumed 4 h after administration. Timing was initiated following intravenous and oral administration. […]
Give bare numbers, in h.

CC(C)(c1ccc(-c2ccc(OCc3ccnc(P(C)(C)=O)n3)cc2)cc1)c1cnc2c(cnn2CCCl)c1 4.42

--- query ---
Lab note: measured half-life of CCCOc1c(Cl)cc(C(C)(C)c2ccc(-c3ccc(OCc4ccnc(P(C)(C)=O)n4)cc3)cc2)cc1C#N was 13.2

---

# experimental-system: CYP2C19 (Homo sapiens)
# Construct: co-incubated with human liver microsomes; from tissue; host or cells: human liver microsomes
# Sequence (P33261 whole entry): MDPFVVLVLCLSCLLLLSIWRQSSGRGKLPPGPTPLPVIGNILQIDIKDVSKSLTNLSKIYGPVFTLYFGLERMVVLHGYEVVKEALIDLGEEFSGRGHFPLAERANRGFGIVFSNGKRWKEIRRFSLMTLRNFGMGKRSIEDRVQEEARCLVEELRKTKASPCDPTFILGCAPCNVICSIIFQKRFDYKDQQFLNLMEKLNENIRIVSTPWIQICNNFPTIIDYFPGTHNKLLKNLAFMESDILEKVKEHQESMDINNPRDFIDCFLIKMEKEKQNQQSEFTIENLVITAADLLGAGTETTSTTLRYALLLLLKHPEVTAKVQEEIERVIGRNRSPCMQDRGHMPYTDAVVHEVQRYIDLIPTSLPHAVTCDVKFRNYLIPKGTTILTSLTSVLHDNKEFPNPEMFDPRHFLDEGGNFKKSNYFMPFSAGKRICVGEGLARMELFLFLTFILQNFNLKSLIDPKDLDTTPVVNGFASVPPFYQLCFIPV
# test-details: CYP inhibition assay in human liver microsomes
# Format: in vitro ADME
# recorded-conditions: human liver microsomes, NADPH; read-out: CYPs 2C19 (IC50)
pIC50: −log10 of the molar value.
Please provide measured pIC50 for the entries that follow.

Below, 2 compounds whose answers are already recorded.
compound	pIC50
CC(C)(c1ccc(-c2cnc(OCc3ccnc(N4CC(S(C)(=O)=O)C4)n3)cn2)cc1)c1cc(Cl)c(OCCCl)c(C#N)c1	< 5.00
CC(C)(c1ccc(-c2cnc(OCc3ccc(-c4cnc(P(C)(C)=O)cn4)cc3)cn2)cc1)c1cc(Cl)c(OCCCl)c(C#N)c1	< 5.00

--- query ---
Lab note: measured pIC50 of CC(C)(c1ccc(-c2ccc(OCC3CC(CN4CC(S(C)(=O)=O)C4)C3)cc2)cc1)c1cc(Cl)c(OCCCl)c(C#N)c1 (stereo not drawn) was < 5.00

---

# test-details: Mouse pharmacokinetic test
# Type: in vivo, ICR mice
# recorded-conditions: plasma, po, 30 mg/kg, PO-30mpk
Please provide measured Cmax for the entries that follow.
One number for each entry, in ng/mL.

molecule	Cmax, ng/mL
CC(C)(c1ccc(-c2ccc(OCc3ccnc(P(C)(C)=O)n3)cc2)cc1)c1cc(Cl)c(OCCCl)c(C#N)c1	31700
CC(C)(c1ccc(-c2ccc(OCc3ccnc(N4CC(P(C)(C)=O)C4)n3)cc2)cc1)c1cc(Cl)c(OCCCl)c(C#N)c1	13600
CC(C)(c1ccc(-c2ccc(OCc3ccnc(N4CC5(CCS5(=O)=O)C4)n3)cc2)cc1)c1cc(Cl)c(OCCCl)c(C#N)c1	21300
CC(C)(c1ccc(-c2ccc(OCC3CC4(C3)CS(=N)(=O)C4)cc2)cc1)c1cc(Cl)c(OCCCl)c(C#N)c1 (centres unmarked)	14300

--- query ---
Lab note: measured Cmax of CC(C)(c1ccc(-c2cnc(OCc3ccnc(N4CC([S@](C)(=N)=O)C4)n3)cn2)cc1)c1cc(Cl)c(OCCCl)c(C#N)c1 (single isomer, unassigned) [Compound 323A] was 131000

---

Please provide measured AUC(0-inf) for the entries that follow.
# test-details: Mouse pharmacokinetic test
# Format: in vivo, ICR mice
# recorded-conditions: plasma, po, 30 mg/kg, PO-30mpk
Answers are plain numbers, in µg·h/mL.

compound	AUC(0-inf) / µg·h/mL
CC(C)(c1ccc(-c2ccc(OCc3ccnc(N4CC(S(C)(=O)=O)C4)n3)cc2)cc1)c1cc(Cl)c(OCCCl)c(C#N)c1 [Compound 53]	421
CC(C)(c1ccc(-c2ccc(OCc3ccnc(P(C)(C)=O)n3)cc2)cc1)c1cc(Cl)c(OCCCl)c(C#N)c1 [Compound 2]	619
CC(C)(c1ccc(-c2ccc(OCc3ccnc(N=S4(=O)CCCC4)n3)cc2)cc1)c1cnc2c(cnn2CCCl)c1 [Compound 46]	220

Dear colleague, could you send me AUC(0-inf) for each of the items below? Thanks.
1. CC(C)(c1ccc(-c2ccc(OCc3ccnc(N4CC(S(C)(=O)=O)C4)n3)nc2)cc1)c1cc(Cl)c(OCCCl)c(C#N)c1 [Compound 207]
2. CC(C)(c1ccc(-c2ccc(OCc3ccnc(N4CC5(CCS(=N)(=O)CC5)C4)n3)cc2)cc1)c1cc(Cl)c(OCCCl)c(C#N)c1 [Compound 289]
3. CC(C)(c1ccc(-c2ccc(OCc3ccnc(N=S(C)(C)=O)n3)cc2)cc1)c1cc(Cl)c(OCCCl)c(C#N)c1 [Compound 44]
4. CC(C)(c1ccc(-c2ccc(OCc3ccnc(N4CC5(CC(P(C)(C)=O)C5)C4)n3)cc2)cc1)c1cc(Cl)c(OCCCl)c(C#N)c1 [Compound 61]
5. CC(C)(c1ccc(-c2ccc3oc(-c4ccnc(P(C)(C)=O)n4)c(N)c3c2)cc1)c1cc(Cl)c(OCCCl)c(C#N)c1 [Compound 56]
6. CC(C)(c1ccc(-c2ccc(OCc3ccnc(N4CC[C@H](S(C)(=O)=O)C4)n3)cc2)cc1)c1cc(Cl)c(OCCCl)c(C#N)c1 [Compound 202]
7. CC(C)(c1ccc(-c2ccc(OCc3ccnc(N4CC5(CCS(=O)(=O)CC5)C4)n3)cc2)cc1)c1cc(Cl)c(OCCCl)c(C#N)c1 [Compound 177]

// result
1. 446
2. 240
3. 219
4. 242
5. 277
6. 202
7. 558

---

# test-details: Mouse pharmacokinetic test
# Assay type: in vivo, ICR mice
# recorded-conditions: in vivo, 30 mg/kg, PO-30mpk
Please provide measured Cmax for the entries that follow.
Give bare numbers, in ng/mL.

CC(C)(c1ccc(N2CCC(Oc3ccnc(P(C)(C)=O)n3)CC2)cc1)c1cc(Cl)c(OCCCl)c(C#N)c1 31000

Lab note: measured Cmax of CC(C)(c1ccc(-c2cccc(OCc3ccnc(P(C)(C)=O)n3)c2)cc1)c1cc(Cl)c(OCCCl)c(C#N)c1 was 62800

---

# test-details: Mouse pharmacokinetic test
# Format: in vivo, ICR mice
# recorded-conditions: plasma, po, 30 mg/kg, PO-30mpk
result-type: AUC(0-inf) (µg·h/mL)
Answers are plain numbers, in µg·h/mL.

Below, 2 compounds whose answers are already recorded.
compound	numeric-readout
CC(C)(c1ccc(-c2ccc(OCc3ccnc(N4CC5(CC(S(C)(=N)=O)C5)C4)n3)cc2)cc1)c1cc(Cl)c(OCCCl)c(C#N)c1 (stereo not shown)	181
CC(C)(c1ccc(-c2ccc(OCc3ccc(-c4cnc(P(C)(C)=O)nc4)cc3)cc2)cc1)c1cc(Cl)c(OCCCl)c(C#N)c1	242

Dear colleague, could you send me AUC(0-inf) for each of the items below? Thanks.
1. CC(C)(c1ccc(-c2ccc(OCc3ccnc(N4CC(P(C)(C)=O)C4)n3)cc2)cc1)c1cc(Cl)c(OCCCl)c(C#N)c1
2. CC(C)(c1ccc(-c2ccc(OCc3ccnc(P(C)(C)=O)n3)c(F)c2)cc1)c1cc(Cl)c(OCCCl)c(C#N)c1
3. CC(C)(c1ccc(-c2ccc(OCc3ccnc(N=S4(=O)CCOCC4)n3)cn2)cc1)c1cc(Cl)c(OCCCl)c(C#N)c1
4. CC(C)(c1ccc(-c2ccc(OCC3CC4(C3)CS(=N)(=O)C4)cc2)cc1)c1cc(Cl)c(OCCCl)c(C#N)c1 (stereo not shown)
5. CC(C)(c1ccc(-c2cnc(OCc3ccnc(N=S4(=O)CCOCC4)n3)cn2)cc1)c1cc(Cl)c(OCCCl)c(C#N)c1
6. CC(C)(c1ccc(-c2ccc(OCc3ccnc(P(C)(C)=O)n3)nc2)cc1)c1cc(Cl)c(OCCCl)c(C#N)c1
7. Cc1cc(OCc2ccnc(P(C)(C)=O)n2)ccc1-c1ccc(C(C)(C)c2cc(Cl)c(OCCCl)c(C#N)c2)cc1

// result
[207, 304, 188, 186, 236, 420, 333]

Dear colleague, could you send me AUC(0-inf) for each of the items below? Thanks.
1. CC(C)(c1ccc(-c2cnc(OCc3ccnc(N4CC([S@@](C)(=N)=O)C4)n3)cn2)cc1)c1cc(Cl)c(OCCCl)c(C#N)c1 (single isomer, unassigned) [Compound 323B]
2. CC(C)(c1ccc(-c2ccc(OCc3ccnc(N4CC(S(C)(=N)=O)C4)n3)cn2)cc1)c1cc(Cl)c(OCCCl)c(C#N)c1 (racemic)

// result
1. 1180
2. 607

Dear colleague, could you send me AUC(0-inf) for each of the items below? Thanks.
1. CC(C)(c1ccc(-c2ccc(OCc3cccc(S(C)(=N)=O)n3)cc2)cc1)c1cc(Cl)c(OCCCl)c(C#N)c1 (stereo not shown)
2. CC(C)(c1ccc(-c2ccc(OCc3ccnc(C4CN(S(C)(=O)=O)C4)n3)cc2)cc1)c1cc(Cl)c(OCCCl)c(C#N)c1

// result
1. 211
2. 273

// data source = patent EP4778922A1
